Molecular target: MMP-7FL (full length matrilysin) (Homo sapiens)
Sequence (P09237 95-267): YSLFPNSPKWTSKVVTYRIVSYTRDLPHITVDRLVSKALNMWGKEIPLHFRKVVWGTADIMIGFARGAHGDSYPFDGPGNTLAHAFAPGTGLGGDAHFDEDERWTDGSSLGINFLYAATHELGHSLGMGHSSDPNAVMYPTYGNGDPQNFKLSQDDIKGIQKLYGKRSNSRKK
Assay: Thiopeptolide substrate hydrolysis assay, MMP-7FL
Format: biochemical
Details: HEPES pH 7.0, 22° C., read-out: IC50 (μM) Versus Certain MMPs: MMP-07 FL
Where a name gives a salt, the structure may show the parent alone.
In this section, each of the molecules is paired with its reported IC50.

Cc1c(=O)n(Cc2ccccc2)c(=O)n2cc(C(=O)NCc3ccc(Cl)cc3)sc12 [Example 50] = 31 µM
Cc1c(=O)n(Cc2ccc(Cl)cc2)c(=O)n2cc(C(=O)NCc3ccncc3)sc12 [Example 72] = > 30 µM
Cc1c(=O)n(Cc2ccc3oc(=O)ccc3c2)c(=O)n2cc(C(=O)NCc3ccc(F)cc3)sc12 [Example 80] = > 30 µM
O=C(NCc1ccccc1)c1cn2c(=O)n(Cc3ccc(Cl)c(Cl)c3)c(=O)cc2s1 [Example 12] = 20 µM

Input: I would be grateful if you could share the reported IC50 for Cc1c(=O)n(Cc2ccc(C(=O)O)cc2)c(=O)n2cc(C(=O)NCc3ccc(F)cc3)sc12 [Example 58] .
Output: > 100 µM

Input: What do you have for Cc1c(=O)n(Cc2ccccc2)c(=O)n2cc(C(=O)NCc3cccnc3)sc12 [Example 44] ?
Output: > 100 µM

Input: What do you have for O=C(NCc1ccccc1)c1cn2c(=O)n(Cc3ccncc3)c(=O)cc2s1 [Example 15, hydrochloride] ?
Output: > 100 µM

Input: What do you have for COc1cc(CNC(=O)c2cn3c(=O)n(Cc4ccccc4)c(=O)c(C)c3s2)ccn1 [Example 37a, hydrochloride] ?
Output: 26 µM

Input: What do you have for Cc1c(=O)n(Cc2cccc(C#N)c2)c(=O)n2cc(C(=O)NCc3ccncc3)sc12 [Example 82, hydrochloride] ?
Output: > 30 µM

Input: What do you have for O=C(Nc1ccc(-c2ccccc2)cc1)c1cn2c(=O)n(Cc3ccccc3)c(=O)cc2s1 [Example 6] ?
Output: 9.2 µM

Input: What do you have for Cc1c(=O)n(Cc2ccc(C(=O)N3CCOCC3)cc2)c(=O)n2cc(C(=O)NCc3ccncc3)sc12 [Example 73, hydrochloride] ?
Output: > 100 µM

Input: What do you have for COC(=O)c1ccc(Cn2c(=O)c(C)c3sc(C(=O)NCc4ccc(F)cc4)cn3c2=O)cc1C [Example 68] ?
Output: > 100 µM

Input: What do you have for Cc1c(=O)n(Cc2ccccc2)c(=O)n2cc(C(=O)NCc3ccc(C(F)(F)F)cc3)sc12 [Example 49] ?
Output: > 100 µM

Input: What do you have for Cc1nc(Cn2c(=O)c(C)c3sc(C(=O)NCc4ccc(F)cc4)cn3c2=O)cs1 [Example 64] ?
Output: > 100 µM

Input: What do you have for Cc1c(=O)n(Cc2ccc(-c3nn[nH]n3)cc2)c(=O)n2cc(C(=O)NCc3ccc(F)cc3)sc12 [Example 75] ?
Output: > 100 µM

Input: What do you have for Cc1c(=O)n(Cc2ccccc2)c(=O)n2cc(C(=O)NCc3ccc4nsnc4c3)sc12 [Example 42] ?
Output: > 30 µM
